I'd be grateful if you could share measured Ki for these entries.
Quick reminder: number only, in nM, skip the unit.

Exercise: What is its Ki for D(3) dopamine receptor (Rattus norvegicus, UniProt P19020)? Entry: CCCN(CCN1CCN(c2ccc(-c3cccc(OC)c3)cc2)CC1)[C@H]1CCc2nc(N)sc2C1
Solution: 2.33

Exercise: Look up Ki with D(3) dopamine receptor (Rattus norvegicus, UniProt P19020) for this compound: CCCN(CCN1CCN(c2ccc(-c3ccc(OC)cc3)cc2)CC1)C1CCc2nc(N)sc2C1 (racemic)
Sequence (P19020 whole entry): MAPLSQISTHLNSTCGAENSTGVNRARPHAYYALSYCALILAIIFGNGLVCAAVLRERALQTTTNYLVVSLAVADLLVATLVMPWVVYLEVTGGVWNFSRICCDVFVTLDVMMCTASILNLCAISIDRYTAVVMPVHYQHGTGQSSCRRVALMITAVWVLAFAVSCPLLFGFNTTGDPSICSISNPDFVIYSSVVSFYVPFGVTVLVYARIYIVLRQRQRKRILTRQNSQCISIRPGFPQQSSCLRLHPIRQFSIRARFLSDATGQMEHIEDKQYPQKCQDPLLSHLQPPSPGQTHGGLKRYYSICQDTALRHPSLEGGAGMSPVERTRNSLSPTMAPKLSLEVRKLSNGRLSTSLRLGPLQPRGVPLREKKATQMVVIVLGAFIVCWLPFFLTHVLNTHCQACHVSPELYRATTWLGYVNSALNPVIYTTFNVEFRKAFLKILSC
Solution: 1.41

Exercise: Can you look up Ki on D(3) dopamine receptor (Rattus norvegicus, UniProt P19020) for CCCN(CCN1CCN(c2ccc(-c3ccccc3OC)cc2)CC1)C1CCc2nc(N)sc2C1 (racemic) ?
Solution: 3.57

Exercise: Request - read-out Ki | tested on D(3) dopamine receptor (Rattus norvegicus, UniProt P19020) | compound CCCN(CCN1CCN(c2ccc(-c3cccc(O)c3)cc2)CC1)[C@H]1CCc2c(O)cccc2C1
Solution: 0.77

Exercise: Lab note: need Ki for CCCN(CCN1CCN(C(=O)c2ccc(-c3ccccc3)cc2)CC1)C1CCc2nc(N)sc2C1 (racemic) on D(3) dopamine receptor (Rattus norvegicus, UniProt P19020), anyone have it?
Solution: 9.58

Exercise: Query the reported Ki for D(3) dopamine receptor (Rattus norvegicus, UniProt P19020); item: CCCN(CCN1CCN(c2ccc(-c3ccc(O)cc3)cc2)CC1)C1CCc2nc(N)sc2C1 (racemic)
Solution: 1.17

# credit: ChEMBL document CHEMBL3124863
